Origin of measurements: the RNAGym collection of RNA variant scans (doi:10.7554/elife.90254)

B1: LINE1-full (parent)
chain: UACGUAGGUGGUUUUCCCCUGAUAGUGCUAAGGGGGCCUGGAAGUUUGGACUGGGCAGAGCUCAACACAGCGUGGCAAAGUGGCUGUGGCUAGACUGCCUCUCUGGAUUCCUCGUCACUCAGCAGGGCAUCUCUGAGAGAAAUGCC

variants of: B1; test: self-cleavage, relative activity (ratio to wild type); higher = more cleavage; in vitro, sequencing; the parent is a self-cleaving ribozyme
Kindly supply the reported self-cleavage values for the records listed here.
Answers are plain numbers.

Some variants with recorded self-cleavage:
- variant: "C66U A117G"
  self-cleavage: 0.05
- variant: "U20C U102C"
  self-cleavage: 1.25
- variant: "U5C A59G"
  self-cleavage: 0.32

Quick one: give me self-cleavage for each item below, same order please.
1. G8C A141U
2. C18U U102G
3. C63A U130C
4. A65G A141G

1: 1.33; 2: 0.62; 3: 0.05; 4: 0.07
